- Procedure summary: Organ biodistribution from fluorescence of tissue lysates
- Condition: female, Balb/c nude, mouse, in vivo, iv, 14 mg/kg, fluorescence of diluted tissue lysates, mean ± s.d. n = 3, read-out: tumour uptake / accumulation efficiency at 48 h post injection
Where a SMILES comes first, the peptide text is derived from it. The star is where a group is joined. X1 = CC1(C)C(=CC=C2CCCC(C=CC3=[N+](CCCCCC(=O)O)c4ccccc4C3(C)C)=C2*)N(CCCCCC(=O)O)c2ccccc21
Parameter measured: tissue uptake at 48 h (%ID/g)
State the answer as a number, implicitly in %ID/g.

Request: Please look up its tissue uptake at 48 h: CC[C@H](C)[C@H](NC(=O)[C@@H]1CCCN1C(=O)[C@@H](NC(=O)[C@H](C)N)C(C)C)C(=O)N[C@@H](C)C(=O)N[C@@H](CCC(N)=O)C(=O)N[C@@H](CCCCN)C(=O)N[C@@H](CC(=O)O)C(=O)N[C@@H](CCC(=O)O)C(=O)N[C@H](C(=O)N[C@@H](CC(=O)O)C(=O)N[C@@H](CCC(=O)O)C(=O)N[C@@H](CSC1=C(C=CC2=[N+](CCCCCC(=O)O)c3ccccc3C2(C)C)CCCC1=CC=C1N(CCCCCC(=O)O)c2ccccc2C1(C)C)C(=O)NCC(=O)O)C(C)C [molecule 3] (H-AVPIAQKDEVDEC(X1)G-OH; N-terminus assumed)
Response: 5.3
